molecular target: human ROCKα/ROCKII mix (Homo sapiens, UniProt O75116); construct: purchased Upstate Biotechnology 14-451; experiment: Biochemical assay for ROCK (fluorescence polarization, ROCK IMAP Kit)
Sequence (O75116 11-552 limits assumed): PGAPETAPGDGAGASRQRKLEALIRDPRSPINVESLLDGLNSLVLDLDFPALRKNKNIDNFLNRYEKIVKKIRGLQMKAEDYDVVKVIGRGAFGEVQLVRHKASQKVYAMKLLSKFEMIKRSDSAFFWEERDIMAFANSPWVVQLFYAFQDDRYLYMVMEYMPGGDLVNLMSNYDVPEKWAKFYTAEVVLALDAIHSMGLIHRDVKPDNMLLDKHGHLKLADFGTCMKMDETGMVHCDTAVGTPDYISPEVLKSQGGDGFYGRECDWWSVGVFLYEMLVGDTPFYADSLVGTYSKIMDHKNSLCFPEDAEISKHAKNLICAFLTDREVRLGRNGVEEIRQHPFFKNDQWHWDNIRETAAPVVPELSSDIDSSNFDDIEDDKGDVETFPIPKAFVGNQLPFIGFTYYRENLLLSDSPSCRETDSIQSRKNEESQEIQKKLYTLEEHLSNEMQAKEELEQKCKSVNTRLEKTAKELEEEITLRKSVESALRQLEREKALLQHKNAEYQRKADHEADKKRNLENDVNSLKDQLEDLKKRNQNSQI
As shown below, each of these molecules has a reported IC50 value.

[[record]]
molecule = "NC(c1ccc(C(=O)Nc2ccncc2)cc1)C1CCCN1C(=O)Cc1ccc(-c2ccccc2)cc1 (stereo not drawn)"
observed_result = "0.5 to 5 µM"


Lookup result for N[C@H](CNC(=O)C1(c2ccc(F)cc2)CCCC1)c1ccc(C(=O)Nc2ccncc2)cc1 ; measured IC50: 0.05 to 0.5 µM

Item: NC(CNC(=O)Nc1ccccc1F)c1ccc(C(=O)Nc2ccncc2)cc1 (stereo not drawn) | IC50: 0.05 to 0.5 µM

// IC50 lookup, molecule = NC(c1ccc(C(=O)Nc2ccncc2)cc1)C1CCCN1C(=O)Cc1ccc(Cl)cc1 (stereo not drawn) , result: 0.5 to 5 µM

Quick note, IC50 for Cc1ccc(CC(=O)N(C)CC(N)c2ccc(C(=O)Nc3ccncc3)cc2)cc1 (stereo not drawn) landed at 0.5 to 5 µM

Recorded result, COc1ccc(CC(=O)N2CCCC2C(N)c2ccc(C(=O)Nc3ccncc3)cc2)c(OC)c1 (stereo not drawn) , IC50: 0.5 to 5 µM
